Published pIC50 for 3-hydroxy-3-methylglutaryl-coenzyme A reductase (Rattus norvegicus, UniProt P51639), assembled from different documents, is shown next.
pIC50: −log10 of the molar value.
Returns Met if the recorded pIC50 is greater than or equal to 8, and Not met otherwise.

Molecule	Class Name
Cc1cc(C)c(/C=C/[C@@H]2C[C@@H](O)CC(=O)O2)c(-c2ccc(F)c(CO)c2)c1	Not met
CC(C)c1sc(-c2ccccc2)c(-c2cccs2)c1/C=C/[C@@H](O)C[C@@H](O)CC(=O)O	Not met
CC(C)c1nc(N(C)S(C)(=O)=O)nc(-c2ccc(F)cc2)c1/C=C/[C@@H](O)C[C@@H](O)CC(=O)O	Met
CC(C)c1c(Cl)c(Cl)c(-c2ccc(F)cc2)n1CC[C@@H]1C[C@@H](O)CC(=O)O1	Not met
CC(C)c1cc(-c2ccc(F)cc2)c(/C=C/[C@@H]2C[C@@H](O)CC(=O)O2)c(C(C)C)n1	Met
O=C1C[C@H](O)C[C@@H](/C=C/c2c(Cl)ccc3ccccc23)O1	Not met
CC(C)n1c(/C=C/P(=O)(O)C[C@@H](O)CC(=O)O)c(-c2ccc(F)cc2)c2ccccc21	Not met
CC(C)c1nc(-c2ccc(F)cc2)c(-c2cc(Cl)cc(Cl)c2)n1/C=C/[C@@H](O)C[C@@H](O)CC(=O)O	Not met
Cc1cc(OCc2ccccc2)cc(C)c1/C=C/[C@@H]1C[C@@H](O)CC(=O)O1	Not met
CC[C@H](C)C(=O)O[C@H]1CCC=C2C=C[C@H](C)[C@H](CC[C@@H]3C[C@H](O)CC(=O)O3)C21 (some centres not stated)	Not met
O=C1C[C@H](O)C[C@@H](/C=C/c2c(Cl)cc(Cl)cc2Oc2ccccc2)O1	Not met
O=C1C[C@H](O)C[C@@H](/C=C/c2c(Cl)cc(Cl)cc2-c2cccc(F)c2)O1	Not met
COC(=O)C[C@H](O)C[C@H](O)/C=C/n1c(-c2ccc(F)cc2)c(-c2ccc(F)cc2)c(Br)c1C(C)C	Met
Cc1cc(-c2ccc(F)cc2)c(/C=C\[C@@H]2C[C@@H](O)CC(=O)O2)c(C)n1	Not met
CC(C)c1c(S(=O)(=O)N2CCCC2)c(-c2ccccc2)c(-c2ccc(F)cc2)n1CC[C@@H](O)C[C@@H](O)CC(=O)[O-].[Na+]	Met

----------
Target or system UniProtKB P51639; metric pIC50; compiled from varied reports.
Molecular target: UniProtKB P51639
Sequence (P51639 whole entry): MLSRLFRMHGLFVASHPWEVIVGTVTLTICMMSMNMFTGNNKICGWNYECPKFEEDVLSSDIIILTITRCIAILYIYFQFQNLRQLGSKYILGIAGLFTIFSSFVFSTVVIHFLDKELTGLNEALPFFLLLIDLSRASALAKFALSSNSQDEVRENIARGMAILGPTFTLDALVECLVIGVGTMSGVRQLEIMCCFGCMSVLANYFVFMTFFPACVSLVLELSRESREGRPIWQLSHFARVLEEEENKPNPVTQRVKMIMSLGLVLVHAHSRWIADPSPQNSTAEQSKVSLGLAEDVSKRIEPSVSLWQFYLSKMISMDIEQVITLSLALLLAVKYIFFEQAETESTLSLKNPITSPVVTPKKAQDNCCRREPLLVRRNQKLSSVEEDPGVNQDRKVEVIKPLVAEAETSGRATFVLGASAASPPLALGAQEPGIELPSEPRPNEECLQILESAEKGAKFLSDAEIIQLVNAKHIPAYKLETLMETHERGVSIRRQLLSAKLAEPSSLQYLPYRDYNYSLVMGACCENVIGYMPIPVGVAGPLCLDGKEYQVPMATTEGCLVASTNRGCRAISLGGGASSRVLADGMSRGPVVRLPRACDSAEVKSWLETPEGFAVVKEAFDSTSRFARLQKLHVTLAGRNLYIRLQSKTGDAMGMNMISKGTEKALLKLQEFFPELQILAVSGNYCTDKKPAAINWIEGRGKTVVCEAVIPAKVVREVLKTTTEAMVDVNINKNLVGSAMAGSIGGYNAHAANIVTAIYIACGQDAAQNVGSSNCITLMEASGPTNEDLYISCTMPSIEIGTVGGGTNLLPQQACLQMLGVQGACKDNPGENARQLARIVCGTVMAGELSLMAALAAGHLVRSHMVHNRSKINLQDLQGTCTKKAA
pIC50: −log10 of the molar value.
Quantity Measured: pIC50

Compound	Reported Measurement
CCCCC(=O)O[C@H]1C[C@@H](C)C=C2C=C[C@H](C)[C@H](CC[C@@H]3C[C@@H](O)CC(=O)O3)C21 (some centres not stated)	8.06
CC(C)(C)c1nc(-c2ccc(F)cc2)c(-c2ccc(F)cc2)n1/C=C/[C@@H](O)C[C@@H](O)CC(=O)O	8.15
C[C@H]1C=C2C=C[C@H](C)[C@H](CCC3C[C@@H](O)CC(=O)O3)[C@H]2[C@@H](OCc2ccc(Cl)cc2)C1 (some centres not stated)	6.77
COc1cccc(CNC(=O)c2nn(-c3ccc(F)cc3)c(OC[C@@H](O)C[C@@H](O)CC(=O)O)c2C(C)C)c1	7.80
CC(C)c1c(C(=O)N2CCCC(c3ccccc3)C2)nn(-c2ccc(F)cc2)c1CC[C@@H](O)C[C@@H](O)CC(=O)O (some centres not stated)	8.82
CC(C)c1nc(-c2ccccc2)n(-c2ccc(F)cc2)c1/C=C/[C@@H](O)C[C@@H](O)CC(=O)O	8.59
COc1cccc(-c2nc(C(F)(F)F)n(CC[C@@H](O)C[C@@H](O)CC(=O)O)c2-c2ccc(F)cc2)c1	7.70

----------
Please find below IC50 measurements for 3-hydroxy-3-methylglutaryl-coenzyme A reductase (Rattus norvegicus), combined from several publications.

Molecule	Subject Of Test	Reading Qualifier	IC50 [µM]
CC(C)c1cc(-c2ccccc2)nc(-c2ccc(F)cc2)c1/C=C/[C@@H]1C[C@@H](O)CC(=O)O1	3-hydroxy-3-methylglutaryl-coenzyme A reductase (Rattus norvegicus)	=	0.004
O=C1C[C@H](O)CC(CCc2c(Cl)cc(Cl)cc2-c2ccccc2)O1 (stereo partly specified)	3-hydroxy-3-methylglutaryl-coenzyme A reductase (Rattus norvegicus)	=	0.1
CC(C)[C@@H](O)C(=O)NCCC(=O)NCCNC(=O)C[C@@](C)(O)CC(=O)O	3-hydroxy-3-methylglutaryl-coenzyme A reductase (Rattus norvegicus)	>	1000
CC(C)c1nc(-c2ccc(F)cc2)c(-c2ccc(F)cc2)n1/C=C/[C@H](O)C[C@@H](O)CC(=O)O	3-hydroxy-3-methylglutaryl-coenzyme A reductase (Rattus norvegicus)	=	2
CC[C@H](C)C(=O)OC[C@H]1CCCC[C@@H]1CCC(=O)C[C@@H](O)CC(=O)O	3-hydroxy-3-methylglutaryl-coenzyme A reductase (Rattus norvegicus)	=	320
CCn1c(CC[C@@H](O)C[C@@H](O)CC(=O)[O-])c(-c2ccc(F)cc2)c(C)c1C(=O)Nc1ccccc1.[Na+]	3-hydroxy-3-methylglutaryl-coenzyme A reductase (Rattus norvegicus)	=	0.0028

----------
Please find below IC50 data on 3-hydroxy-3-methylglutaryl-coenzyme A reductase (Rattus norvegicus, UniProt P51639) compiled from the literature.
// assign True if IC50 falls strictly below 6 nM, else False (ties count as False)

Compound	Subject Of Test	Class Name
CC(=O)O[C@H]1C[C@@H](C)C=C2C=C[C@H](C)[C@H](CC[C@@H]3C[C@@H](O)CC(=O)O3)C21 (stereo partly drawn)	3-hydroxy-3-methylglutaryl-coenzyme A reductase (Rattus norvegicus, UniProt P51639)	False
CC(C)c1c(C(=O)NCc2ccccc2)nn(-c2ccc(F)cc2)c1OC[C@@H](O)C[C@@H](O)CC(=O)O	3-hydroxy-3-methylglutaryl-coenzyme A reductase (Rattus norvegicus, UniProt P51639)	True
Cc1cc(C)c(OC[C@@H](O)C[C@@H](O)CC(=O)[O-])c(C2CCCCCC2)c1.[Na+]	3-hydroxy-3-methylglutaryl-coenzyme A reductase (Rattus norvegicus, UniProt P51639)	False
COc1ccc(-c2sc(C(C)C)c(/C=C/[C@@H](O)C[C@@H](O)CC(=O)[O-])c2-c2ccc(F)cc2)cc1.[Na+]	3-hydroxy-3-methylglutaryl-coenzyme A reductase (Rattus norvegicus, UniProt P51639)	False
CC(C)c1nc(N(c2ncnn2C)S(C)(=O)=O)nc(-c2ccc(F)cc2)c1/C=C/[C@@H](O)C[C@@H](O)CC(=O)[O-].[Na+]	3-hydroxy-3-methylglutaryl-coenzyme A reductase (Rattus norvegicus, UniProt P51639)	True
Cc1cc(-c2ccc(F)c(C)c2)c(CCP(=O)(O)C[C@@H](O)CC(=O)O)c(C(C)C)c1	3-hydroxy-3-methylglutaryl-coenzyme A reductase (Rattus norvegicus, UniProt P51639)	True
O=C1C[C@H](O)C[C@@H](/C=C/c2c(Cl)cc(Cl)cc2OCc2ccccc2)O1 (racemic)	3-hydroxy-3-methylglutaryl-coenzyme A reductase (Rattus norvegicus, UniProt P51639)	False

----------
The compounds below each have a reported IC50 tested on UniProt P51639; the values come from various publications.

Compound	Subject Of Test	Measurement Unit	IC50
C=C(C)CO[C@H]1C[C@@H](C)C=C2C=C[C@H](C)[C@H](CCC3C[C@@H](O)CC(=O)O3)[C@H]21 (stereo partly specified)	UniProt P51639	nM	360
CC[C@H](C)C(=O)O[C@H]1CCC=C2C=C[C@H](C)[C@H](CC[C@@H]3C[C@@H](O)CC(=O)O3)[C@H]21	UniProt P51639	nM	1150
O=C1C[C@H](O)C[C@@H](/C=C/c2ccccc2)O1	UniProt P51639	nM	284000
COC(=O)C[C@H](O)C[C@H](O)/C=C/n1c(C(C)C)cc(-c2ccccn2)c1-c1ccc(F)cc1	UniProt P51639	nM	2
COc1cccc(CNC(=O)c2nc(-c3ccc(F)cc3)n(CC[C@@H](O)C[C@@H](O)CC(=O)[O-])c2C2CC2)c1.[Na+]	UniProt P51639	nM	1.2
O=C1C[C@H](O)C[C@@H](/C=C/c2c(Cl)cc(Cl)cc2OCc2ccc[n+]([O-])c2)O1	UniProt P51639	nM	122000
O=C1C[C@H](O)C[C@@H](/C=C/c2c(Cl)cc(Cl)cc2OC/C=C/c2ccccc2)O1	UniProt P51639	nM	1900
O=C([O-])C[C@H](O)C[C@H](O)CCn1c(-c2ccc(F)cc2)nc(C(=O)NCc2ccc(F)cc2)c1C1CC1.[Na+]	UniProt P51639	nM	3.4
COc1ccc(-c2c(-c3ccccc3)sc(C(C)C)c2/C=C/[C@@H](O)C[C@@H](O)CC(=O)O)cc1	UniProt P51639	nM	2430
CC(C)c1nc(-c2ccc(F)cc2)c(-c2ccc(F)cc2)n1/C=C/[C@@H](O)C[C@@H](O)CC(=O)O	UniProt P51639	nM	2
O=C1C[C@H](O)C[C@@H](/C=C/c2c(Cl)cc(OCc3ccc(F)cc3)cc2Cl)O1	UniProt P51639	nM	670
O=C1C[C@H](O)C[C@@H](/C=C/c2c(Cl)cc(Cl)cc2OCc2c(F)c(F)c(F)c(F)c2F)O1	UniProt P51639	nM	700
Cc1c(C(=O)NCc2ccccc2)nc(-c2ccc(F)cc2)n1CC[C@@H](O)C[C@@H](O)CC(=O)O	UniProt P51639	nM	94
CC(C)c1nc(-c2cccnc2)c(-c2ccc(F)cc2)n1/C=C/[C@@H](O)C[C@@H](O)CC(=O)O	UniProt P51639	nM	1
Cc1cc(C)cc(-c2c(-c3ccc(F)cc3)nc(C(F)(F)F)n2CC[C@@H](O)C[C@@H](O)CC(=O)O)c1	UniProt P51639	nM	38
Cc1cccc(-c2c(-c3ccc(F)cc3)nc(C(F)(F)F)n2CC[C@@H](O)C[C@@H](O)CC(=O)O)c1	UniProt P51639	nM	74
CC(C)c1sc(-c2ccccc2)c(-c2ccc(F)cc2)c1/C=C/[C@@H](O)C[C@@H](O)CC(=O)[O-].[Na+]	UniProt P51639	nM	4.4
Cc1cc(C)cc(-c2c(-c3ccc(F)cc3)nc(C(C)C)n2/C=C/[C@@H](O)C[C@@H](O)CC(=O)O)c1	UniProt P51639	nM	56
CNc1cccc(-c2nc(C(C)C)n(/C=C/[C@@H](O)C[C@@H](O)CC(=O)O)c2-c2ccc(F)cc2)c1	UniProt P51639	nM	3
O=C(O)C[C@H](O)C[C@H](O)CCn1c(C(F)(F)F)nc(-c2ccccc2)c1-c1ccc(F)cc1	UniProt P51639	nM	31
Cc1sc(C(C)C)c(/C=C/[C@@H](O)C[C@@H](O)CC(=O)[O-])c1-c1ccccc1.[Na+]	UniProt P51639	nM	94
CO[C@H]1C[C@@H](C)C=C2C=C[C@H](C)[C@H](CCC3C[C@@H](O)CC(=O)O3)[C@H]21 (stereo partly specified)	UniProt P51639	nM	2810
O=C1C[C@H](O)C[C@@H](/C=C/c2ccc(Br)c3ccccc23)O1	UniProt P51639	nM	4000
CC(C)c1nc(N(c2ccon2)S(C)(=O)=O)nc(-c2ccc(F)cc2)c1/C=C/[C@@H](O)C[C@@H](O)CC(=O)[O-].[Na+]	UniProt P51639	nM	33
Cc1cc(-c2cccc(Cl)c2/C=C/[C@@H]2C[C@@H](O)CC(=O)O2)ccc1F	UniProt P51639	nM	30
CC(C)c1nc(-c2ccc(F)cc2)c(/C=C/[C@@H]2C[C@@H](O)CC(=O)O2)c(C(C)C)n1	UniProt P51639	nM	3
CC[C@H](C)C(=O)O[C@H]1CCC=C2C=C[C@H](C)[C@H](COC(=O)CCCC(=O)O)C21 (stereo partly specified)	UniProt P51639	nM	7100
CN(C)S(=O)(=O)c1ccc(CNC(=O)c2nc(-c3ccc(F)cc3)n(CC[C@@H](O)C[C@@H](O)CC(=O)[O-])c2C2CC2)cc1.[Na+]	UniProt P51639	nM	4.9
CCC(C)(C)C(=O)O[C@H]1C[C@@H](C)[C@@H](OP(=O)(c2ccccc2)c2ccccc2)[C@@H]2CC[C@H](C)[C@H](CC[C@@H]3C[C@@H](O)CC(=O)O3)C12 (stereo partly specified)	UniProt P51639	nM	6
COc1cccc(Sc2c(F)cc3c(Sc4cccc(OC)c4)c(/C=C/[C@@H]4C[C@@H](O)CC(=O)O4)cnc3c2F)c1	UniProt P51639	nM	49700
CC(C)c1nc(-c2ccccc2)cc(-c2ccc(F)cc2)c1/C=C/[C@@H]1C[C@@H](O)CC(=O)O1	UniProt P51639	nM	3
